System Under Test: PARP-2 enzyme (Homo sapiens, UniProt Q9UGN5)
Construct: purchased BPS Bioscience 80,581
Sequence (Q9UGN5 whole entry): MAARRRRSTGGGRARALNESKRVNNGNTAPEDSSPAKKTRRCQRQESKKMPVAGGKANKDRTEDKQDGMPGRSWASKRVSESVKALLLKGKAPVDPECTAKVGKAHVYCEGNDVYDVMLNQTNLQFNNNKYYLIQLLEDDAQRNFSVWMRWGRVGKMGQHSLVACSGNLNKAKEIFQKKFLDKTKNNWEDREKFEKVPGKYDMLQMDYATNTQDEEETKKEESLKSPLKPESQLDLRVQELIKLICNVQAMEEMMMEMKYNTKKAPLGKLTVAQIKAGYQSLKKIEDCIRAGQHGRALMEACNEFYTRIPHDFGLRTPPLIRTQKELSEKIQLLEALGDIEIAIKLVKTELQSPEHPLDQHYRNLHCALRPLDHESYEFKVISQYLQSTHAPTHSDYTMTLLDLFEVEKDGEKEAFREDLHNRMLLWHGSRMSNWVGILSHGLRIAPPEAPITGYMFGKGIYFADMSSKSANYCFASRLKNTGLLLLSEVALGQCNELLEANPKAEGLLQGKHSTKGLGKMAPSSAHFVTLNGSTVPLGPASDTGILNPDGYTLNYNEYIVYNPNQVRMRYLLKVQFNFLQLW
Measurement Description: Poly (ADP-ribose) polymerase 2 (PARP-2) inhibition assay (colorimetric kit)
Format: biochemical
Experimental Context: conc 10 (ng/ml)
Experimental: Results were expressed as IC50 values (Table 2). The PARP-2 inhibitory activity of the test compounds was assayed using PARP-2 Colorimetric Activity Assay Kit (BPS Bioscience, catalog 80,581, San Diego, CA, USA) following the manufacturer’s protocol. […] The absorbance was read at 450 nm using UV/Vis spectrophotometer microplate reader. […] Reader : ROBONIK P2000 Eliza Reader wl 450 nm
Value Kind: %inh of PARP-2 (Table S2 raw data) (%)

molecular_string=O=C(CCNCCCc1ccccc1)Nc1ccc(-c2nc3cc(Cl)ccc3o2)cc1 recorded_number=88.59
molecular_string=CCN(CC)CCC(=O)Nc1ccc(-c2nc3cc(Cl)ccc3o2)cc1 recorded_number=88.84
molecular_string=CCN1CCN(CCC(=O)Nc2ccc(-c3nc4cc(Cl)ccc4o3)cc2)CC1 recorded_number=90.54
molecular_string=CN1CCN(CCC(=O)Nc2ccc(-c3nc4cc(Cl)ccc4o3)cc2)CC1 recorded_number=88.69
molecular_string=CCN(CC)CC(=O)Nc1ccc(-c2nc3cc(Cl)ccc3o2)cc1 recorded_number=86.92
molecular_string=O=C(CCN1CCCCC1)Nc1ccc(-c2nc3cc(Cl)ccc3o2)cc1 recorded_number=84.97
molecular_string=O=C(CNCCCc1ccccc1)Nc1ccc(-c2nc3cc(Cl)ccc3o2)cc1 recorded_number=86.49
molecular_string=O=C(CCN1CCOCC1)Nc1ccc(-c2nc3cc(Cl)ccc3o2)cc1 recorded_number=90.18
molecular_string=O=C(CNCCc1ccccc1)Nc1ccc(-c2nc3cc(Cl)ccc3o2)cc1 recorded_number=81.94

---

System Under Test: PARP-2 enzyme (Homo sapiens, UniProt Q9UGN5)
Construct: purchased BPS Bioscience 80,581
Measurement Description: Poly (ADP-ribose) polymerase 2 (PARP-2) inhibition assay (colorimetric kit)
Type: biochemical
Experimental Context: conc 0.1 (ng/ml)
Value Kind: %inh of PARP-2 (Table S2 raw data) (%)

molecular_string=CN1CCN(CCC(=O)Nc2ccc(-c3nc4cc(Cl)ccc4o3)cc2)CC1 system_under_test="PARP-2 enzyme (Homo sapiens, UniProt Q9UGN5)" value_kind="%inh of PARP-2 (Table S2 raw data)" recorded_number=46.82
molecular_string=O=C(CCNCCCc1ccccc1)Nc1ccc(-c2nc3cc(Cl)ccc3o2)cc1 system_under_test="PARP-2 enzyme (Homo sapiens, UniProt Q9UGN5)" value_kind="%inh of PARP-2 (Table S2 raw data)" recorded_number=47.92
molecular_string=CCN(CC)CC(=O)Nc1ccc(-c2nc3cc(Cl)ccc3o2)cc1 system_under_test="PARP-2 enzyme (Homo sapiens, UniProt Q9UGN5)" value_kind="%inh of PARP-2 (Table S2 raw data)" recorded_number=38.75
molecular_string=O=C(CCN1CCCCC1)Nc1ccc(-c2nc3cc(Cl)ccc3o2)cc1 system_under_test="PARP-2 enzyme (Homo sapiens, UniProt Q9UGN5)" value_kind="%inh of PARP-2 (Table S2 raw data)" recorded_number=43.61
molecular_string=CCN(CC)CCC(=O)Nc1ccc(-c2nc3cc(Cl)ccc3o2)cc1 system_under_test="PARP-2 enzyme (Homo sapiens, UniProt Q9UGN5)" value_kind="%inh of PARP-2 (Table S2 raw data)" recorded_number=52.67
molecular_string=O=C(CCN1CCOCC1)Nc1ccc(-c2nc3cc(Cl)ccc3o2)cc1 system_under_test="PARP-2 enzyme (Homo sapiens, UniProt Q9UGN5)" value_kind="%inh of PARP-2 (Table S2 raw data)" recorded_number=53.11
molecular_string=O=C(CNCCCc1ccccc1)Nc1ccc(-c2nc3cc(Cl)ccc3o2)cc1 system_under_test="PARP-2 enzyme (Homo sapiens, UniProt Q9UGN5)" value_kind="%inh of PARP-2 (Table S2 raw data)" recorded_number=33.43
molecular_string=O=C(CNCCc1ccccc1)Nc1ccc(-c2nc3cc(Cl)ccc3o2)cc1 system_under_test="PARP-2 enzyme (Homo sapiens, UniProt Q9UGN5)" value_kind="%inh of PARP-2 (Table S2 raw data)" recorded_number=36.15
molecular_string=CCN1CCN(CCC(=O)Nc2ccc(-c3nc4cc(Cl)ccc4o3)cc2)CC1 system_under_test="PARP-2 enzyme (Homo sapiens, UniProt Q9UGN5)" value_kind="%inh of PARP-2 (Table S2 raw data)" recorded_number=46.83

---

Tested on: MCF-7 cells
Measurement Description: Annexin V-FITC/PI double staining flow cytometry, apoptosis and necrosis
Assay type: cell-based, human
Experimental Context: MCF-7 treated at IC50 concentration, 24 h; untreated control 1.15%
% Necrosis overview
Only the number, expressed in %, is required.

molecular_string=O=C(CCN1CCOCC1)Nc1ccc(-c2nc3cc(Cl)ccc3o2)cc1 system_under_test="MCF-7 cells" unit_tag=% recorded_number=7.23
molecular_string=CN1CCN(CCC(=O)Nc2ccc(-c3nc4cc(Cl)ccc4o3)cc2)CC1 system_under_test="MCF-7 cells" unit_tag=% recorded_number=6.39
molecular_string=O=C(CCN1CCCCC1)Nc1ccc(-c2nc3cc(Cl)ccc3o2)cc1 system_under_test="MCF-7 cells" unit_tag=% recorded_number=5.74

Prompt line: // returns reported % Necrosis for input `CCN(CC)CCC(=O)Nc1ccc(-c2nc3cc(Cl)ccc3o2)cc1`
Response line: 2.07

---

System Under Test: PARP-2 enzyme (Homo sapiens, UniProt Q9UGN5)
Construct: purchased BPS Bioscience 80,581
Measurement Description: Poly (ADP-ribose) polymerase 2 (PARP-2) inhibition assay (colorimetric kit)
Format: biochemical
Experimental Context: conc 1 (ng/ml)
Value Kind: %inh of PARP-2 (Table S2 raw data) (%)

molecular_string=O=C(CNCCc1ccccc1)Nc1ccc(-c2nc3cc(Cl)ccc3o2)cc1 unit_tag=% recorded_number=52.41
molecular_string=CCN(CC)CCC(=O)Nc1ccc(-c2nc3cc(Cl)ccc3o2)cc1 unit_tag=% recorded_number=73.48
molecular_string=CN1CCN(CCC(=O)Nc2ccc(-c3nc4cc(Cl)ccc4o3)cc2)CC1 unit_tag=% recorded_number=71.31
molecular_string=O=C(CNCCCc1ccccc1)Nc1ccc(-c2nc3cc(Cl)ccc3o2)cc1 unit_tag=% recorded_number=58.97
molecular_string=O=C(CCNCCCc1ccccc1)Nc1ccc(-c2nc3cc(Cl)ccc3o2)cc1 unit_tag=% recorded_number=73.45
molecular_string=O=C(CCN1CCCCC1)Nc1ccc(-c2nc3cc(Cl)ccc3o2)cc1 unit_tag=% recorded_number=58.88
molecular_string=O=C(CCN1CCOCC1)Nc1ccc(-c2nc3cc(Cl)ccc3o2)cc1 unit_tag=% recorded_number=67.93
molecular_string=CCN1CCN(CCC(=O)Nc2ccc(-c3nc4cc(Cl)ccc4o3)cc2)CC1 unit_tag=% recorded_number=75.72
molecular_string=CCN(CC)CC(=O)Nc1ccc(-c2nc3cc(Cl)ccc3o2)cc1 unit_tag=% recorded_number=55.9

---

Tested on: MCF-7 cells
Measurement Description: Cell cycle analysis by flow cytometry (PI staining)
Format: cell-based, human
Experimental Context: MCF-7 treated at IC50 concentration, 24 h; untreated control 58.21%
Description: For further investigation of the promising antiproliferative activity of compounds 11, 12, 13 and 27 on breast cancer MCF-7 cell line, cell cycle analysis was carried out using flow cytometric assay. […] MCF-7 cells were seeded in 24-well plate at a density of 2 × 10^5 cells/well, treated with the test compounds 11, 12, 13 and 27 at different concentrations and incubated at 37 °C for 24 h in 5% CO2 atmosphere. […] The cell cycle distributions were measured using Cell-Quest software. […]
percentage of cells in G0/G1 phase (%G0-G1) overview
Only the number, expressed in %, is required.

Field: example entries. Status: answers known.
molecule="CN1CCN(CCC(=O)Nc2ccc(-c3nc4cc(Cl)ccc4o3)cc2)CC1 [Compound 13]" recorded_number=44.98
molecule="CCN(CC)CCC(=O)Nc1ccc(-c2nc3cc(Cl)ccc3o2)cc1 [Compound 27]" recorded_number=62.38
molecule="O=C(CCN1CCOCC1)Nc1ccc(-c2nc3cc(Cl)ccc3o2)cc1 [Compound 12]" recorded_number=41.78

As a next step, examine the molecule that follows.
Prompt line: // returns reported percentage of cells in G0/G1 phase (%G0-G1) for input O=C(CCN1CCCCC1)Nc1ccc(-c2nc3cc(Cl)ccc3o2)cc1 [Compound 11]
Response line: 68.02

---

System Under Test: PARP-2 enzyme (Homo sapiens)
Construct: purchased BPS Bioscience 80,581
Measurement Description: Poly (ADP-ribose) polymerase 2 (PARP-2) inhibition assay (colorimetric kit)
Assay type: biochemical
Experimental Context: conc 0.01 (ng/ml)
Value Kind: %inh of PARP-2 (Table S2 raw data) (%)

molecular_string=O=C(CNCCCc1ccccc1)Nc1ccc(-c2nc3cc(Cl)ccc3o2)cc1 recorded_number=27.08
molecular_string=CN1CCN(CCC(=O)Nc2ccc(-c3nc4cc(Cl)ccc4o3)cc2)CC1 recorded_number=30.58
molecular_string=CCN1CCN(CCC(=O)Nc2ccc(-c3nc4cc(Cl)ccc4o3)cc2)CC1 recorded_number=33.28
